Where do these numbers come from? They come from patent US20020028938A1.

- Test system: carrageenan induced paw edema
- Procedure details: Carrageenan induced paw edema (CPE) in rats
- Assay type: in vivo
- Measurement context: 10 mpk oral, rat, 3 hours after carrageenan; read-out: CPE % Inhib. @ 10 mpk
Record Criterion met whenever inhibition in vivo at 10 mg/kg is at 30% or higher; record Criterion not met when lower.

Query: Does "CC(C)CCOc1c(-c2ccc(S(C)(=O)=O)cc2)cnn(-c2ccc(F)cc2)c1=O" have a reported inhibition in vivo at 10 mg/kg of at least 30%?
Response: Criterion met

Query: Does "CC(C)(O)COc1c(-c2ccc(S(N)(=O)=O)cc2)cnn(-c2ccc(F)cc2)c1=O" have a reported inhibition in vivo at 10 mg/kg of at least 30%?
Response: Criterion not met

Query: Does "CC(C)CCOc1c(-c2ccc(S(C)(=O)=O)cc2)cnn(-c2ccc(F)c(F)c2)c1=O" have a reported inhibition in vivo at 10 mg/kg of at least 30%?
Response: Criterion not met

Query: Does "CC(C)CCOc1c(-c2ccc(S(N)(=O)=O)cc2)cnn(-c2ccc(F)c(F)c2)c1=O" have a reported inhibition in vivo at 10 mg/kg of at least 30%?
Response: Criterion not met

Query: Does "NS(=O)(=O)c1ccc(-c2cnn(CC=C(Cl)Cl)c(=O)c2-c2ccc(F)cc2)cc1" have a reported inhibition in vivo at 10 mg/kg of at least 30%?
Response: Criterion not met

Query: Does C[S+]([O-])c1ccc(-c2cnn(CC(F)(F)F)c(=O)c2-c2ccc(Cl)cc2)cc1 (stereo not drawn) have a reported inhibition in vivo at 10 mg/kg of at least 30%?
Response: Criterion not met

Query: Does "NS(=O)(=O)c1ccc(-c2cnn(-c3ccc(F)cc3)c(=O)c2-c2ccc(F)cc2)cc1" have a reported inhibition in vivo at 10 mg/kg of at least 30%?
Response: Criterion met

Query: Does "CS(=O)(=O)c1ccc(-c2cnn(C3CCCCC3)c(=O)c2-c2ccc(F)cc2)cc1" have a reported inhibition in vivo at 10 mg/kg of at least 30%?
Response: Criterion not met

Query: Does "CS(=O)(=O)c1ccc(-c2cnn(-c3cccc(Cl)c3)c(=O)c2Oc2ccc(F)cc2)cc1" have a reported inhibition in vivo at 10 mg/kg of at least 30%?
Response: Criterion not met

Query: Does "CC(C)CCc1c(-c2ccc(S(N)(=O)=O)c(F)c2)cnn(CC(F)(F)F)c1=O" have a reported inhibition in vivo at 10 mg/kg of at least 30%?
Response: Criterion not met

Query: Does "CC(=O)NS(=O)(=O)c1ccc(-c2cnn(CC(F)(F)F)c(=O)c2OCC(C)(C)CO)cc1" have a reported inhibition in vivo at 10 mg/kg of at least 30%?
Response: Criterion met

Query: Does "CS(=O)(=O)c1ccc(-c2cnn(-c3ccccc3)c(=O)c2-c2ccc(F)cc2)cc1" have a reported inhibition in vivo at 10 mg/kg of at least 30%?
Response: Criterion not met

Query: Does "CC(C)COc1c(-c2ccc(S(N)(=O)=O)cc2)cnn(-c2ccc(F)c(F)c2)c1=O" have a reported inhibition in vivo at 10 mg/kg of at least 30%?
Response: Criterion met

Query: Does "CS(=O)(=O)c1ccc(-c2cnn(-c3ccc(F)cc3)c(=O)c2-c2ccc(F)cc2)cc1" have a reported inhibition in vivo at 10 mg/kg of at least 30%?
Response: Criterion not met

Query: Does "CC(C)(C)COc1c(-c2ccc(S(N)(=O)=O)cc2)cnn(CC(F)(F)F)c1=O" have a reported inhibition in vivo at 10 mg/kg of at least 30%?
Response: Criterion met

====

Listed below: IC50 values for each entry.
- Study system: human amnionic whole cell cyclooxygenase-2 (WISH cells) (Homo sapiens)
- Construct: endogenous in cells
- Procedure details: IL-1β induced PGE2 production in WISH cells
- Measurement context: read-out: Wish IC50 (parenthetical value)
Dear colleague, please send the value followed by its unit.

Worked cases, IC50 given:
NS(=O)(=O)c1ccc(-c2cnn(Cc3cccc(F)c3)c(=O)c2-c2ccc(F)cc2)cc1 [Example 149]    30 nM
CS(=O)(=O)c1ccc(-c2cnn(-c3ccc(F)c(Cl)c3)c(=O)c2-c2ccc(Cl)cc2)cc1 [Example 102]    50 nM

Query: Determine its reported IC50: Cc1cc(-c2c(-c3ccc(S(C)(=O)=O)cc3)cnn(-c3ccc(F)cc3)c2=O)ccc1F [Example 245]
Response: 46 nM

====

Measured property: melting point

Worked cases, melting point given:
CC(C)=CCOc1c(-c2ccc(S(C)(=O)=O)cc2)cnn(-c2cccc(Cl)c2)c1=O    113 to 115 °C
CS(=O)(=O)c1ccc(-c2cnn(CC(F)(F)F)c(=O)c2Nc2cc(F)cc(F)c2F)cc1    190 to 194 °C
NS(=O)(=O)c1ccc(-c2cnn(CC=C(F)F)c(=O)c2-c2ccc(F)cc2)cc1F    180 to 183 °C

Query: Determine its reported melting point: "CS(=O)(=O)c1ccc(-c2cnn(C3CCC3)c(=O)c2-c2ccc(F)cc2)cc1"
Response: 202 to 203 °C

Query: Determine its reported melting point: "CS(=O)(=O)c1ccc(-c2cnn(-c3cc(Cl)cc(Cl)c3)c(=O)c2-c2ccc(F)cc2)cc1"
Response: 289 to 294 °C

Query: Determine its reported melting point: "CS(=O)(=O)c1ccc(-c2cnn(CC(F)(F)F)c(=O)c2-c2ccc3c(c2)COC3=O)cc1"
Response: 237 to 239 °C

Query: Determine its reported melting point: "CS(=O)(=O)c1ccc(-c2cnn(CC(F)(F)F)c(=O)c2NC2CCCC2)cc1"
Response: 134 to 139 °C

Query: Determine its reported melting point: "CC=C(C)c1c(-c2ccc(S(C)(=O)=O)cc2)cnn(CC(F)(F)F)c1=O"
Response: 175 to 180 °C

Query: Determine its reported melting point: "CS(=O)(=O)c1ccc(-c2cnn(CC(=O)c3ccc(OC(F)(F)F)cc3)c(=O)c2-c2ccc(F)cc2)cc1"
Response: 160 to 161 °C

Query: Determine its reported melting point: "CS(=O)(=O)c1ccc(-c2cnn(-c3cccc(Cl)c3)c(=O)c2Oc2cccc(F)c2)cc1"
Response: 178 to 180 °C

Query: Determine its reported melting point: "CS(=O)(=O)c1ccc(-c2cnn(-c3cccc(Cl)c3)c(=O)c2OCC2CC2)cc1"
Response: 158 to 161 °C

Query: Determine its reported melting point: "Cc1cc(-n2ncc(-c3ccc(S(C)(=O)=O)cc3)c(-c3ccc(F)cc3)c2=O)ccc1F"
Response: 168 to 170 °C

====

- Tested on: air pouch prostaglandin biosynthesis (Cox-2)
- Procedure details: Carrageenan induced air pouch prostaglandin biosynthesis model (CAP)
- Format: in vivo, rat
- Measurement context: 4 h; 3 mpk, rat; read-out: CAP % Inhib. @ 3 mpk
Measured property: inhibition in vivo at 3 mg/kg (%)
Express your answer in %, writing the number without its unit.

Worked cases, inhibition in vivo at 3 mg/kg given:
CC(C)COc1c(-c2ccc(S(C)(=O)=O)cc2)cnn(-c2ccc(F)c(F)c2)c1=O    49.5
CC(C)(C)COc1c(-c2ccc(S(N)(=O)=O)cc2)cnn(-c2ccc(F)c(F)c2)c1=O    66.5
CCC(C)CCOc1c(-c2ccc(S(C)(=O)=O)cc2)cnn(-c2ccc(F)c(F)c2)c1=O (centres unmarked)    0
CS(=O)(=O)c1ccc(-c2cnn(-c3ccc(F)c(F)c3)c(=O)c2Oc2ccc(F)cc2)cc1    71
CS(=O)(=O)c1ccc(-c2cnn(-c3ccc(F)c(F)c3)c(=O)c2Cc2cccc(F)c2)cc1    7

Query: Determine its reported inhibition in vivo at 3 mg/kg: "CC(C)(O)CCOc1c(-c2ccc(S(C)(=O)=O)cc2)cnn(-c2ccc(F)cc2)c1=O"
Response: 80.5

Query: Determine its reported inhibition in vivo at 3 mg/kg: "CS(=O)(=O)c1ccc(-c2cnn(-c3ccc(F)c(Cl)c3)c(=O)c2-c2ccc(F)cc2)cc1"
Response: 30

Query: Determine its reported inhibition in vivo at 3 mg/kg: "Cc1cc(-c2c(-c3ccc(S(C)(=O)=O)cc3)cnn(-c3ccc(F)cc3)c2=O)ccc1F"
Response: 47

====

- Study system: recombinant human Cox-2 (r-hu Cox-2) (Homo sapiens, UniProt P35354)
- Sequence (P35354 18-604): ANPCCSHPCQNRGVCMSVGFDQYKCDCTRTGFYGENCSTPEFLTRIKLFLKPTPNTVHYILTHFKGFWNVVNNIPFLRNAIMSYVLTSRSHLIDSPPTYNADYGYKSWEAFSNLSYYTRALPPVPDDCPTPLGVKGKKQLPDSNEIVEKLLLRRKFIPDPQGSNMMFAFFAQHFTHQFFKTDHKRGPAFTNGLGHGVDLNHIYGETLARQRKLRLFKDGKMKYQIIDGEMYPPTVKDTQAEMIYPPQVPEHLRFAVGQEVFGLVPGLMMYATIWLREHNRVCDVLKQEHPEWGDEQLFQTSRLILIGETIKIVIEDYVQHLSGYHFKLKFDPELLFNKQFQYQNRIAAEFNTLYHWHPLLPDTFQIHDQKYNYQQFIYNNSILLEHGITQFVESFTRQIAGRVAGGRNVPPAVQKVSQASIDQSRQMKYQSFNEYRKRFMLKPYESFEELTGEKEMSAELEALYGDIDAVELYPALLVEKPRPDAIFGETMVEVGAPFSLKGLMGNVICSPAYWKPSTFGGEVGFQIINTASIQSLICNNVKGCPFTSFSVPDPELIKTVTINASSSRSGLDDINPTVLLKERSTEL
- Procedure details: Recombinant human PGHS-2 enzyme assay (RHUCX2)
- Measurement context: read-out: RHUCX2 IC50 (parenthetical value)
Listed below: IC50 values for each entry.
Express your answer in nM, writing the number without its unit.

CS(=O)(=O)c1ccc(-c2cnn(-c3ccc(F)cc3)c(=O)c2Cc2ccccc2)cc1 [Example 230]    215
CC(C)CSc1c(-c2ccc(S(C)(=O)=O)cc2)cnn(-c2cccc(Cl)c2)c1=O [Example 361]    11
CS(=O)(=O)c1ccc(-c2cnn(-c3ccc(F)cc3)c(=O)c2-c2ccc(F)cc2)cc1 [Example 62]    624
CS(=O)(=O)c1ccc(-c2cnn(CC(F)(F)F)c(=O)c2-c2ccc(Cl)cc2)cc1 [Example 58]    950
CC(/C=C/Cl)n1ncc(-c2ccc(S(N)(=O)=O)cc2)c(-c2ccc(F)cc2)c1=O (centres unmarked) [Example 140]    22
NS(=O)(=O)c1ccc(-c2cnn(Cc3ccc(F)cc3F)c(=O)c2-c2ccc(F)cc2)cc1 [Example 124]    44
CC(C)CCc1c(-c2ccc(S(C)(=O)=O)cc2)cnn(-c2ccc(F)c(F)c2)c1=O [Example 256]    134

Let us examine a further case.
Query: Determine its reported IC50: CC(C)(O)CCOc1c(-c2ccc(S(C)(=O)=O)cc2)cnn(-c2ccc(F)cc2)c1=O [Example 451]
Response: 470
